Each entry below carries its recorded IC50.
- tgt: cAMP phosphodiesterase (human platelets) (Homo sapiens, UniProt Q14432)
- Sequence (Q14432 whole entry): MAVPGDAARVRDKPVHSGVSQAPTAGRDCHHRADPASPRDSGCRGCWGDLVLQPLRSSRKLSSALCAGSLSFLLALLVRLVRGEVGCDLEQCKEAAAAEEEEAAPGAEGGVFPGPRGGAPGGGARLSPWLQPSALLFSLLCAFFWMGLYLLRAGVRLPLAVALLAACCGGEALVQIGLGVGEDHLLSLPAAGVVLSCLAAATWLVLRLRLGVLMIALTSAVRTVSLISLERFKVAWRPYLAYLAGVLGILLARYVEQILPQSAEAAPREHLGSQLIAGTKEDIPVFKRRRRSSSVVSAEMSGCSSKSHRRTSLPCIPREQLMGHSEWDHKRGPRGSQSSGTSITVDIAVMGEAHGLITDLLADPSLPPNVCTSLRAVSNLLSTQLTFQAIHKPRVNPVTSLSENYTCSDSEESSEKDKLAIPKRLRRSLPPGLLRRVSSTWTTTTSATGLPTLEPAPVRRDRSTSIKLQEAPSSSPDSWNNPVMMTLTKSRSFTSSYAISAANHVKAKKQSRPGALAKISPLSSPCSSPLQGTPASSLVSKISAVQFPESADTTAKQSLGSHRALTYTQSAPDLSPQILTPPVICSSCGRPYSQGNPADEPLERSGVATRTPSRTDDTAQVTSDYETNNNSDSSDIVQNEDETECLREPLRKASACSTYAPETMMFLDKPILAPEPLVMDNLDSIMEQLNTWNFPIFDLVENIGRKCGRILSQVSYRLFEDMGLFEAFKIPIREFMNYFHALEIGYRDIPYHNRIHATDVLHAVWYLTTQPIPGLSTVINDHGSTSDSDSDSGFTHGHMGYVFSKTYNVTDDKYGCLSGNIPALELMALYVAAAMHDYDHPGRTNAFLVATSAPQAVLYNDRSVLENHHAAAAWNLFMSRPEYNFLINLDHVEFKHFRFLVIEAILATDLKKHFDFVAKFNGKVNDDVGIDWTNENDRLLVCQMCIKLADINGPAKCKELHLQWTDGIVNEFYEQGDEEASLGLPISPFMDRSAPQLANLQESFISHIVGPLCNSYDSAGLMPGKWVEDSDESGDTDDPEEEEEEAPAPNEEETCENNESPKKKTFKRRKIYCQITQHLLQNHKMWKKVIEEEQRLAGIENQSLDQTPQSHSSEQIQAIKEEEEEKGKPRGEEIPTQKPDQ
Field note: include the unit after the figure.

Worked examples follow.
> print(dat)
                                   compound                                       tgt  recorded.value
1  CN(C(=O)CCCOc1ccc2nc3[nH]c(=O)[nH]c3cc2c1)C1CCCCC1  cAMP phosphodiesterase (human platelets) (Homo sapiens, UniProt Q14432)        0.002 µM
2  COC(=O)CCCOc1ccc2nc3[nH]c(=O)[nH]c3cc2c1  cAMP phosphodiesterase (human platelets) (Homo sapiens, UniProt Q14432)          0.4 µM
3  O=C(CCCOc1ccc2nc3[nH]c(=O)[nH]c3cc2c1)N1CCN(c2ccccc2)CC1  cAMP phosphodiesterase (human platelets) (Homo sapiens, UniProt Q14432)        0.002 µM
4        O=C(O)COc1ccc2[nH]c3nc(O)nc-3cc2c1  cAMP phosphodiesterase (human platelets) (Homo sapiens, UniProt Q14432)         0.07 µM
5  O=C(CCCOc1ccc2nc3[nH]c(=O)[nH]c3cc2c1)N1CCCCC1  cAMP phosphodiesterase (human platelets) (Homo sapiens, UniProt Q14432)         0.02 µM
6     COC(=O)CCCCOc1ccc2nc3nc(O)n(C)c3cc2c1  cAMP phosphodiesterase (human platelets) (Homo sapiens, UniProt Q14432)            5 µM
7  CC(C)NCC(O)COc1ccc2nc3[nH]c(=O)[nH]c3cc2c1 (centres unmarked)  cAMP phosphodiesterase (human platelets) (Homo sapiens, UniProt Q14432)          0.3 µM

Known value: cAMP phosphodiesterase (human platelets) (Homo sapiens, UniProt Q14432) IC50 of the compound CN(C(=O)CCCOc1ccc2nc3nc(O)n(C)c3cc2c1)C1CCCCC1 equals 0.2 µM
